target: Histone-arginine methyltransferase CARM1 (Homo sapiens, UniProt Q86X55)
Sequence (Q86X55 whole entry): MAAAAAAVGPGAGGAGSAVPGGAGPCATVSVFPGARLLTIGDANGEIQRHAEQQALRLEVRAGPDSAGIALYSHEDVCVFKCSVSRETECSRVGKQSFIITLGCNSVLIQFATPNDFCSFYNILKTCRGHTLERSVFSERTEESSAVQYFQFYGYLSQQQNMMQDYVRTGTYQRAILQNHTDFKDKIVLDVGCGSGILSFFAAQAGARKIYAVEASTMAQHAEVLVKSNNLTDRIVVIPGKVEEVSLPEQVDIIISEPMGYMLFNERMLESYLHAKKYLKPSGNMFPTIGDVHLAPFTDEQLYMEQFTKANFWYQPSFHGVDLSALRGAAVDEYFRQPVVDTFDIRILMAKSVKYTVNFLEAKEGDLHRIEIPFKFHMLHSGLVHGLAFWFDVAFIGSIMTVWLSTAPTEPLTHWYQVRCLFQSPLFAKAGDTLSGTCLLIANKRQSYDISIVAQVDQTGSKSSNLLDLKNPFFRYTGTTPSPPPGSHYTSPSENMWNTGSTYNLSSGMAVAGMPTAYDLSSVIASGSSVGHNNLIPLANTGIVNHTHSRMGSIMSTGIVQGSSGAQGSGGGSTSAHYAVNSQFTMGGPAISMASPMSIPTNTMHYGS
Parameter IC50: see the listing below.

query_smiles: CNCCN1CCC(NCc2ccccc2)CC1
measurement_target: Histone-arginine methyltransferase CARM1 (Homo sapiens, UniProt Q86X55)
unit_abbrev: nM
IC50: 471
//
query_smiles: CNCCN1CCC(NCc2cccc(-c3ccccc3)c2)CC1
measurement_target: Histone-arginine methyltransferase CARM1 (Homo sapiens, UniProt Q86X55)
unit_abbrev: nM
IC50: 330
//
query_smiles: CNCCN1CCC(NCc2cccc(Cl)c2)CC1
measurement_target: Histone-arginine methyltransferase CARM1 (Homo sapiens, UniProt Q86X55)
unit_abbrev: nM
IC50: 157
//
query_smiles: CNCCN1CCC(NCc2cccc(OC(F)(F)F)c2)CC1
measurement_target: Histone-arginine methyltransferase CARM1 (Homo sapiens, UniProt Q86X55)
unit_abbrev: nM
IC50: 342
//
query_smiles: CNCCN1CCC(NCc2cccc(F)c2)CC1
measurement_target: Histone-arginine methyltransferase CARM1 (Homo sapiens, UniProt Q86X55)
unit_abbrev: nM
IC50: 223
//
query_smiles: CNCCN1CCC(NCc2cccc(Br)c2)CC1
measurement_target: Histone-arginine methyltransferase CARM1 (Homo sapiens, UniProt Q86X55)
unit_abbrev: nM
IC50: 94

---

Listed here: molecules with reported pIC50 for Protein arginine N-methyltransferase 5 (Homo sapiens, UniProt O14744).
pIC50: −log10 of the molar value.
property_measured: pIC50

query_smiles: CNCCN1CCC(NCc2cccc(Br)c2)CC1
measurement_target: Protein arginine N-methyltransferase 5 (Homo sapiens, UniProt O14744)
Sequence (O14744 whole entry): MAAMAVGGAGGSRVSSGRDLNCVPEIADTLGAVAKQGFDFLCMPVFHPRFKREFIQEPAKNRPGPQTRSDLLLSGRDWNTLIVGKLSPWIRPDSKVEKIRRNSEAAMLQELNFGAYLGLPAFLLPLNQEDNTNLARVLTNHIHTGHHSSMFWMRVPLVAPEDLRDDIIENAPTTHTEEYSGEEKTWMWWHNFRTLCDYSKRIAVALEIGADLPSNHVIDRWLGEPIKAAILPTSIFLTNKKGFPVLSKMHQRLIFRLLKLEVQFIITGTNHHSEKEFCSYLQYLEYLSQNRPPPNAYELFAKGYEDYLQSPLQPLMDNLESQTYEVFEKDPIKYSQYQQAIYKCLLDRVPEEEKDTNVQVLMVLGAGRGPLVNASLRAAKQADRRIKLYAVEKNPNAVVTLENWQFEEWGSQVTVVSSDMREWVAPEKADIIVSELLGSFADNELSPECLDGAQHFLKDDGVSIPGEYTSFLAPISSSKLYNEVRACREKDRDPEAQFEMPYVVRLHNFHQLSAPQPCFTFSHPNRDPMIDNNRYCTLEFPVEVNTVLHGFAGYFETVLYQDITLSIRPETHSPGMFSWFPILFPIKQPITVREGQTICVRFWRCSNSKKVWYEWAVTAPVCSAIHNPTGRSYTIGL
result: < 4.30
//
query_smiles: CNCCN1CCC(NCc2ccccc2)CC1
measurement_target: Protein arginine N-methyltransferase 5 (Homo sapiens, UniProt O14744)
result: < 4.30

Numbers sourced from ChEMBL document CHEMBL3994567.
